assay: Agonist activity at delta opioid receptor in guinea pig ileum; settings: Cavia porcellus
pIC50: −log10 of the molar value. Non-standard residues stand in square brackets, D forms with d. Residues, ends and D or L forms follow the SMILES beside them. Tic = O=C(O)[C@@H]1Cc2ccccc2CN1
measured.quantity: pIC50

# pIC50 (compound: N[C@@H](Cc1ccc(O)cc1)C(=O)N1Cc2ccccc2C[C@H]1C(=O)N[C@@H](Cc1ccccc1)C(=O)N[C@@H](Cc1ccccc1)C(=O)O (H-Y[Tic]FF-OH) ) is < 5.00
